target: T1, mouse transferrin receptor (mTfR) fused to EGFP, on CHO cells (mouse, UniProt Q62351 1-763); assay: apparent Kd, flow cytometry, CHO cells
T1 construct: whole, on cells; also called mouse TfR; CHO-mTfR-EGFP; not shown: EGFP
T1 sequence (Q62351 whole entry, the tested form may be a part): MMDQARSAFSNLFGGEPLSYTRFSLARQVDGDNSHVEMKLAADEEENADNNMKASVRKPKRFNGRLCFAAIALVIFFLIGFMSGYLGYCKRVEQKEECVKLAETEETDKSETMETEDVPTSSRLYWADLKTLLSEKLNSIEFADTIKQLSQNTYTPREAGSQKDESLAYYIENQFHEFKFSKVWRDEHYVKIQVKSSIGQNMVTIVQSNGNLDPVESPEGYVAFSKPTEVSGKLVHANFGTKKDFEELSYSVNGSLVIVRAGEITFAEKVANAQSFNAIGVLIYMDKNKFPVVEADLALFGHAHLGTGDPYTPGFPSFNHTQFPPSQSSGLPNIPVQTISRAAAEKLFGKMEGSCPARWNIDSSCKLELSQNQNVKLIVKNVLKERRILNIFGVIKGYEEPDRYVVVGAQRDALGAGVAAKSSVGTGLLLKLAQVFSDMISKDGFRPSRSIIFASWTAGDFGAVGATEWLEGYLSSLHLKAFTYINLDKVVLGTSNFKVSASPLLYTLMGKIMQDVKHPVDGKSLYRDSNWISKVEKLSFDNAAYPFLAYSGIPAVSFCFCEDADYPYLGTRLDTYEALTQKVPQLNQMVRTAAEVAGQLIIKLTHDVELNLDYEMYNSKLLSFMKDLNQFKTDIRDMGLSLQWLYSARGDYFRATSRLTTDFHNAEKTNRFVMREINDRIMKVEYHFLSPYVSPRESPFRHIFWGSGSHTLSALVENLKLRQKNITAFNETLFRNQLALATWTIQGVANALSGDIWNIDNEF
quantity: Kd (nM)

C5^h18 (VHH) VHH: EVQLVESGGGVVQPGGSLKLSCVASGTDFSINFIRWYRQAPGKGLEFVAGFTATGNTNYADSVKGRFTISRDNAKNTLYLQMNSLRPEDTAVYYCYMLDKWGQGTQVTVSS; 834
B8^V21 (VHH) VHH: EVQLVESGGGVVQPGGSLRLSCAASGEIFSINNMRWYRQAPGKQREWVAGFTRDGSTNYPDSAKGRFTISRDNAKNTVYLQIDSLKPEDTAVYYCYMLDTWGQGTQVTVSS; 3350
